measured.target: acetylcholine receptor
assay.procedure: SPR, AchR immobilized on CM5 chip, peptide at 10 µM
value.kind: Binding affinity (RU)

RGVTK [5mer-126] | 61
KVFLR [5mer-415] | 77
RQRCR [5mer-138] | 71
RVICK [5mer-118] | 87
RWVSR [5mer-107] | 56
RWFTK [5mer-146] | 52
RVRQK [5mer-125] | 67
RGFSK [5mer-102] | 82
RVLQK [5mer-434] | 74
KVQLK [5mer-431] | 81
RRYQK [5mer-147] | 66
